Tested on: erythrocytes infected with 3D7 trophozoites
Format: cell-based, Plasmodium falciparum
Conditions: sheet Ratio; Exp2, 1hr
Peptide text beside a SMILES is read from it.
OBSERVATION TYPE: Ratio of metabolite abundance, Exp2_1hr

>>> df
                                    compound                         observation_type  reported_result
 0  Nc1ncnc2c1ncn2[C@@H]1O[C@H](COP(=O)(O)OP(=O)(O)O)[C@@H](O)[C@H]1O [ADP]  Ratio of metabolite abundance, Exp2_1hr            1.167
 1             NCCCC(=O)O [4-Aminobutanoate]  Ratio of metabolite abundance, Exp2_1hr            3.257
 2  O=C1CC(C(=O)O)NC(=O)N1 (centres unmarked) [Dihydroorotate]  Ratio of metabolite abundance, Exp2_1hr           0.9051
 3  O=C(COP(=O)(O)O)[C@@H](O)[C@H](O)[C@H](O)[C@H](O)COP(=O)(O)O [Sedoheptoluse bisphosphate]  Ratio of metabolite abundance, Exp2_1hr            1.522
 4  O=c1[nH]cnc2c1ncn2[C@@H]1O[C@H](COP(=O)(O)OP(=O)(O)O)[C@@H](O)[C@H]1O [IDP]  Ratio of metabolite abundance, Exp2_1hr           0.5363
 5  CC(C)[C@H](NC(=O)[C@H](C)NC(=O)[C@@H]1CCCN1)C(=O)N[C@@H](Cc1c[nH]cn1)C(=O)O [PAVH]  Ratio of metabolite abundance, Exp2_1hr           0.6106
 6  O=C(O)C[C@H](NC(=O)[C@@H]1CCCN1)C(=O)O [PD] (H-Pro-Asp-OH)  Ratio of metabolite abundance, Exp2_1hr            1.264
 7  Nc1ncnc2c1ncn2[C@@H]1O[C@H](COP(=O)(O)OP(=O)(O)OP(=O)(O)O)[C@@H](O)[C@H]1O [ATP]  Ratio of metabolite abundance, Exp2_1hr           0.9538
 8       N[C@@H](CCC(=O)O)C(=O)O [Glutamate]  Ratio of metabolite abundance, Exp2_1hr           1.0715
 9  Nc1ncnc2c1ncn2[C@@H]1O[C@H](COP(=O)(O)O)[C@@H](O)[C@H]1O [AMP]  Ratio of metabolite abundance, Exp2_1hr            1.745
10  CC(C)C[C@H](N)C(=O)N[C@@H](CC(=O)O)C(=O)O [LD] (H-Leu-Asp-OH)  Ratio of metabolite abundance, Exp2_1hr            1.486

====

The following molecules are listed with their measured Ratio of metabolite abundance, Exp2_3hr values.
Test system: erythrocytes infected with 3D7 trophozoites
Format: cell-based, Plasmodium falciparum
Conditions: sheet Ratio; Exp2, 3hr
Peptide text beside a SMILES is read from it.
OBSERVATION TYPE: Ratio of metabolite abundance, Exp2_3hr

                                    molecule  reported_result
 0  Nc1nc2c(ncn2[C@@H]2O[C@H](COP(=O)(O)OP(=O)(O)OP(=O)(O)O)[C@@H](O)[C@H]2O)c(=O)[nH]1           0.6479
 1  Nc1nc2c(ncn2[C@H]2C[C@H](O)[C@@H](COP(=O)(O)O)O2)c(=O)[nH]1           0.9344
 2  O=C(O)C1CCCCN1 (stereo not drawn) [Pipecolate]            1.052
 3     O=C(O)CCC(=O)C(=O)O [2-Ketoglutarate]           0.5178
 4  CC(C)C[C@H](NC(=O)[C@@H](NC(=O)[C@H](C)N)[C@@H](C)O)C(=O)N[C@@H](CO)C(=O)O [ATLS] (H-ATLS-OH)           0.8993
 5  O=P(O)(O)OC[C@H]1O[C@](O)(COP(=O)(O)O)[C@@H](O)[C@@H]1O [Fructose-1-6-bisphosphate]            1.872
 6  Nc1nc2c(ncn2[C@@H]2O[C@H](COP(=O)(O)O)[C@@H](O)[C@H]2O)c(=O)[nH]1           0.2451
 7  N[C@@H](CO)C(=O)N[C@@H](Cc1ccccc1)C(=O)NCC(=O)N[C@@H](CC(=O)O)C(=O)O [SFGD] (H-SFGD-OH)           0.8881
 8                    CC(=O)N[C@@H](C)C(=O)O           0.5861
 9  Nc1ncnc2c1ncn2[C@@H]1O[C@H](COP(=O)(O)OP(=O)(O)OP(=O)(O)O)[C@@H](O)[C@H]1O           0.8859
10  CC(C)[C@H](NC(=O)[C@@H]1CCCN1C(=O)[C@@H]1CCCN1)C(=O)N[C@@H](CCC(N)=O)C(=O)O [PPVQ] (H-PPVQ-OH)           0.8051
11  O=c1ccn([C@@H]2O[C@H](COP(=O)(O)OP(=O)(O)O)[C@@H](O)[C@H]2O)c(=O)[nH]1           0.7051
12  CC(C)[C@H](NC(=O)[C@H](CC(N)=O)NC(=O)[C@@H](N)[C@@H](C)O)C(=O)N[C@@H](CCCCN)C(=O)O [TNVK] (H-TNVK-OH)           0.3584
13  O=P(O)(O)OC[C@H]1OC(O)[C@H](O)[C@@H](O)[C@@H]1O (stereo partly drawn) [Glucose-6-Phosphate]           0.8323
14  Nc1ccn([C@@H]2O[C@H](COP(=O)(O)OP(=O)(O)O)[C@@H](O)[C@H]2O)c(=O)n1           0.7109
15  Cc1cn([C@H]2C[C@H](O)[C@@H](COP(=O)(O)OP(=O)(O)OP(=O)(O)O)O2)c(=O)[nH]c1=O            1.272
16  NC(=O)N[C@@H](CC(=O)O)C(=O)O [N-Carbamoyl-L-aspartate]           0.2641
17  CC(C)(COP(=O)(O)OP(=O)(O)OC[C@H]1O[C@@H](n2cnc3c(N)ncnc32)[C@H](O)[C@@H]1OP(=O)(O)O)[C@@H](O)C(=O)NCCC(=O)NCCS           0.6878
18  N[C@@H](CCC(=O)O)C(=O)N[C@@H](CO)C(=O)N[C@@H](Cc1ccccc1)C(=O)NCC(=O)O [ESFG] (H-ESFG-OH)            1.053
19  CC(C)C[C@H](NC(=O)[C@H](C)NC(=O)[C@@H](N)CC(=O)O)C(=O)N[C@H](C(=O)O)[C@@H](C)O [DALT] (H-DALT-OH)           0.5469
20  Nc1ncnc2c1ncn2[C@H]1C[C@H](O)[C@@H](COP(=O)(O)OP(=O)(O)O)O1           0.9609

====

Test system: erythrocytes infected with 3D7 trophozoites
Assay type: cell-based, Plasmodium falciparum
Details: sheet Ratio; Exp2, 3hr
Peptide text beside a SMILES is read from it.
Measured Ratio of metabolite abundance, Exp2_3hr by item

MOLECULE	Ratio of metabolite abundance, Exp2_3hr
CC(C)[C@H](NC(=O)[C@H](C)NC(=O)[C@@H]1CCCN1)C(=O)N[C@@H](Cc1c[nH]cn1)C(=O)O	0.3696
CC(=O)N[C@@H](CCC(=O)O)C(=O)O [N-Acetyl-glutamate]	0.7877
N[C@@H](CCC(=O)O)C(=O)O [Glutamate]	0.9058
O=C(COP(=O)(O)O)[C@@H](O)[C@H](O)[C@H](O)[C@H](O)COP(=O)(O)O [Sedoheptoluse bisphosphate]	1.277
Nc1ccn([C@H]2C[C@H](O)[C@@H](COP(=O)(O)OP(=O)(O)O)O2)c(=O)n1	1.387
Nc1ccn([C@@H]2O[C@H](COP(=O)(O)OP(=O)(O)OP(=O)(O)O)[C@@H](O)[C@H]2O)c(=O)n1	0.9317
O=c1ccn([C@H]2C[C@H](O)[C@@H](COP(=O)(O)O)O2)c(=O)[nH]1	1.859
CC(C)[C@H](NC(=O)[C@@H](N)CCC(=O)O)C(=O)NCC(=O)NCC(=O)O [EVGG] (H-EVGG-OH)	0.9151
CC(C)[C@H](NC(=O)[C@H](CCC(=O)O)NC(=O)[C@@H](N)CC(=O)O)C(=O)NCC(=O)O [DEVG] (H-DEVG-OH)	1.059
CC(C)C[C@H](NC(=O)[C@@H](N)Cc1cnc[nH]1)C(=O)N[C@@H](CC(=O)O)C(=O)O [HLD] (H-His-Leu-Asp-OH)	0.5663
NC(=O)c1ccc[n+]([C@@H]2O[C@H](COP(=O)([O-])OP(=O)(O)OC[C@H]3O[C@@H](n4cnc5c(N)ncnc54)[C@H](O)[C@@H]3O)[C@@H](O)[C@H]2O)c1	1.088
O=C(O)c1cc(=O)[nH]c(=O)[nH]1 [Orotate]	0.4131
O=C(CO)COP(=O)(O)O [Glycerone phosphate]	1.043
